tested on: Staphylococcus epidermidis 174B; assay: MIC vs. Staphylococcus epidermidis 174B; type: cell-based; set-up: unit not given beside the values; details: Table 2a
Quantity kind: MIC vs. Staphylococcus epidermidis 174B

// known answers, use as guide
CC(=O)OCC1=C(C(=O)O)N2C(=O)[C@@H](NC(=O)Cc3cccs3)[C@H]2SC1 [Cephalothin, reference compound]: 0.5
O=C(COc1cc(F)cc(F)c1)NC1C(=O)N2C(C(=O)O)=C(Cl)CSC12 (stereo not drawn): 0.5
O=C(COc1c(F)cc(F)cc1F)NC1C(=O)N2C(C(=O)O)=C(Cl)CSC12 (stereo not drawn): 1

1: O=C(COc1ccc(OC(F)(F)F)cc1)NC1C(=O)N2C(C(=O)O)=C(Cl)CSC12 (stereo not drawn)
2: O=C(CSc1c(F)c(F)c(F)c(F)c1F)NC1C(=O)N2C(C(=O)O)=C(Cl)CSC12 (stereo not drawn)
3: O=C(COc1c(F)c(F)c(F)c(F)c1F)NC1C(=O)N2C(C(=O)O)=C(Cl)CCC12 (stereo not drawn)
Inquiry: Ordering criterion: MIC vs. Staphylococcus epidermidis 174B; begin with the maximum. Answer by listing the labels in the order asked for.
Reply text: 3, 1, 2

----------
tested on: Staphylococcus aureus 170C; test: MIC vs. Staphylococcus aureus 170C; format: cell-based; set-up: unit not given beside the values; conditions: Table 2a
Quantity kind: MIC vs. Staphylococcus aureus 170C

O=C(COc1cc(F)cc(F)c1)NC1C(=O)N2C(C(=O)O)=C(Cl)CSC12 (stereo not drawn): 4
CC(=O)OCC1=C(C(=O)O)N2C(=O)[C@@H](NC(=O)Cc3cccs3)[C@H]2SC1 [Cephalothin, reference compound]: 0.5

I: O=C(COc1c(F)cc(F)cc1F)NC1C(=O)N2C(C(=O)O)=C(Cl)CSC12 (stereo not drawn)
II: O=C(CSc1c(F)c(F)c(F)c(F)c1F)NC1C(=O)N2C(C(=O)O)=C(Cl)CSC12 (stereo not drawn)
III: O=C(COc1c(F)c(F)c(F)c(F)c1F)NC1C(=O)N2C(C(=O)O)=C(Cl)CCC12 (stereo not drawn)
Inquiry: // sort entries: MIC vs. Staphylococcus aureus 170C, high to low List the labels, following the order given in the request.
Reply text: I, III, II
(I: 4, III: 1, II: 0.5)

----------
Test system: Staphylococcus aureus 168H
Test: MIC vs. Staphylococcus aureus 168H
Type: cell-based
Parameters: unit not given beside the values
Conditions: Table 2a
Excerpt: Tables 2 and 2a summarize the minimal inhibitory concentrations (MIC's) at which illustrative formula I compounds and cephalothin inhibit certain microorganisms that are associated with mastitis, such as Staphylococcus aureus 10092 (Newbould strain).
Quantity kind: MIC vs. Staphylococcus aureus 168H

Some entries whose results are on file:
CC(=O)OCC1=C(C(=O)O)N2C(=O)[C@@H](NC(=O)Cc3cccs3)[C@H]2SC1 [Cephalothin, reference compound]: 0.5
O=C(COc1c(F)c(F)c(F)c(F)c1F)NC1C(=O)N2C(C(=O)O)=C(Cl)CCC12 (stereo not drawn): 16
O=C(COc1c(F)cc(F)cc1F)NC1C(=O)N2C(C(=O)O)=C(Cl)CSC12 (stereo not drawn): 2

a: O=C(COc1ccc(OC(F)(F)F)cc1)NC1C(=O)N2C(C(=O)O)=C(Cl)CSC12 (stereo not drawn)
b: O=C(COc1cc(F)cc(F)c1)NC1C(=O)N2C(C(=O)O)=C(Cl)CSC12 (stereo not drawn)
c: O=C(CSc1c(F)c(F)c(F)c(F)c1F)NC1C(=O)N2C(C(=O)O)=C(Cl)CSC12 (stereo not drawn)
Inquiry: Rank order required: MIC vs. Staphylococcus aureus 168H, descending. Please reply with the labels ordered as requested. Many thanks.
Reply text: b, a, c
(b: 2, a: 1, c: 0.5)
